These entries and their values trace back to patent US20090149339A1.

# EXPERIMENTAL_SYSTEM: GST-NeDLG PDZ domain fusion protein (presynaptic protein sao102, neuroendocrine-dlg; PDZ domains 1-2 of 3) [GST: P08515]
# Sequence (P08515 1-218, tags or fused parts left off): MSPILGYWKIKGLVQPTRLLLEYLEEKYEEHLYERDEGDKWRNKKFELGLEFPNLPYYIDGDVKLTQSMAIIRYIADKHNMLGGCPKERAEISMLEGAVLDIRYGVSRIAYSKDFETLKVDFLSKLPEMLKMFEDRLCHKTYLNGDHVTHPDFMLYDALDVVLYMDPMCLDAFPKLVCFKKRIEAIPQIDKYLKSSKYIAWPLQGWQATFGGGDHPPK
# PROCEDURE_SUMMARY: G assay, peptide titrated on immobilized GST-PDZ, saturation fit (apparent affinity)
Ends that are not written are not given here.
QUANTITY: pKd
Give bare numbers, as −log10 of the molar value.

Prompt line: Identify measured pKd associated with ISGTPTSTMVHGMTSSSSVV (not fully specified) [CLASP-2 C-terminal PL peptide AA2L (C-terminal 20 amino acids), biotinylated]
Response line: 5.12
